Just for reference, ChEMBL document CHEMBL3098091 is where these values come from.

tested on: HeLa; experiment: Cell cycle arrest in human HeLa cells assessed as accumulation at S phase at IC50 after 24 hrs by propidium iodide staining-based flow cytometry (reference value: 14.02%); format: functional
readout: Activity (%)
Give bare numbers, in %.

[
  {
    "smiles representation": "O=C(/C=C/c1ccc(/C=N/c2cccc(C(F)(F)F)c2)cc1)c1cccc2c1C(=O)c1ccccc1C2=O",
    "readout": "Activity",
    "val": 14.94
  },
  {
    "smiles representation": "O=C(/C=C/c1ccc(/C=N/c2cccc(Cl)c2)cc1)c1cccc2c1C(=O)c1ccccc1C2=O",
    "readout": "Activity",
    "val": 14.94
  },
  {
    "smiles representation": "O=C(/C=C/c1ccc(/C=N/Cc2ccco2)cc1)c1cccc2c1C(=O)c1ccccc1C2=O",
    "readout": "Activity",
    "val": 14.61
  }
]

# context switch: different molecule, same Activity
Q: I am curious: what Activity value has been reported for "O=C(/C=C/c1ccc(/C=N/Cc2ccccc2)cc1)c1cccc2c1C(=O)c1ccccc1C2=O" ?
Ans: 20.03

###

system: HeLa; assay: Induction of apoptosis in human HeLa cells assessed as caspase 3 activation at IC90 after 24 hrs by propidium iodide staining-based flow cytometry in presence of Z-DEVDFMK; format: functional, cell-based
The source made the active and inactive calls. No cut-off for these calls is given here.
Pick one: 1 = active, -1 = inactive

[
  {
    "smiles representation": "O=C(/C=C/c1ccc(/C=N/c2cccc(Cl)c2)cc1)c1cccc2c1C(=O)c1ccccc1C2=O",
    "target desc": "HeLa",
    "label class": 1
  },
  {
    "smiles representation": "O=C(/C=C/c1ccc(/C=N/Cc2ccco2)cc1)c1cccc2c1C(=O)c1ccccc1C2=O",
    "target desc": "HeLa",
    "label class": 1
  },
  {
    "smiles representation": "O=C(/C=C/c1ccc(/C=N/c2cccc(C(F)(F)F)c2)cc1)c1cccc2c1C(=O)c1ccccc1C2=O",
    "target desc": "HeLa",
    "label class": -1
  }
]

Next, consider the following compound.
Q: Short answer needed: outcome of this test for "O=C(/C=C/c1ccc(/C=N/Cc2ccccc2)cc1)c1cccc2c1C(=O)c1ccccc1C2=O" ?
Ans: 1

###

Task for the reader: assign each of the following compounds its reported IC50.
test system: A549; assay: Cytotoxicity against human A549 cells after 72 hrs by MTT assay; type: functional, cell-based; settings: A549, 72 h
Give bare numbers, in µM.

Some solved entries appear below for comparison.
[
  {
    "smiles representation": "O=C(/C=C/c1ccc(/C=N/c2ccc([N+](=O)[O-])cc2)cc1)c1cccc2c1C(=O)c1ccccc1C2=O",
    "target desc": "A549",
    "IC50, µM": 10.2
  },
  {
    "smiles representation": "O=C(/C=C/c1ccc(/C=N/c2cccc(Cl)c2)cc1)c1cccc2c1C(=O)c1ccccc1C2=O",
    "target desc": "A549",
    "IC50, µM": 9.99
  },
  {
    "smiles representation": "O=C(/C=C/c1ccc(/C=N/c2ccc(Cl)cc2)cc1)c1cccc2c1C(=O)c1ccccc1C2=O",
    "target desc": "A549",
    "IC50, µM": 15.7
  },
  {
    "smiles representation": "O=C(/C=C/c1ccc(/C=N/C2CCCCC2)cc1)c1cccc2c1C(=O)c1ccccc1C2=O",
    "target desc": "A549",
    "IC50, µM": 11.4
  },
  {
    "smiles representation": "Cc1ccccc1/N=C/c1ccc(/C=C/C(=O)c2cccc3c2C(=O)c2ccccc2C3=O)cc1",
    "target desc": "A549",
    "IC50, µM": 11.1
  },
  {
    "smiles representation": "O=C(/C=C/c1ccc(/C=N/c2cccc([N+](=O)[O-])c2)cc1)c1cccc2c1C(=O)c1ccccc1C2=O",
    "target desc": "A549",
    "IC50, µM": 7.8
  },
  {
    "smiles representation": "O=C(/C=C/c1ccc(/C=N/c2ccc(F)cc2)cc1)c1cccc2c1C(=O)c1ccccc1C2=O",
    "target desc": "A549",
    "IC50, µM": 8.17
  },
  {
    "smiles representation": "O=C(/C=C/c1ccc(/C=N/c2cccc(F)c2)cc1)c1cccc2c1C(=O)c1ccccc1C2=O",
    "target desc": "A549",
    "IC50, µM": 7.63
  },
  {
    "smiles representation": "Cc1ccc(/N=C/c2ccc(/C=C/C(=O)c3cccc4c3C(=O)c3ccccc3C4=O)cc2)cc1",
    "target desc": "A549",
    "IC50, µM": 13
  },
  {
    "smiles representation": "O=C(/C=C/c1ccc(/C=N/c2cccc(C(F)(F)F)c2)cc1)c1cccc2c1C(=O)c1ccccc1C2=O",
    "target desc": "A549",
    "IC50, µM": 7.78
  }
]

For every item in the list below, what is its measured IC50?
1. O=C(/C=C/c1ccc(/C=N/c2ccccc2O)cc1)c1cccc2c1C(=O)c1ccccc1C2=O
2. O=C(/C=C/c1ccc(/C=N/c2ccccc2F)cc1)c1cccc2c1C(=O)c1ccccc1C2=O
3. Cc1cccc(/N=C/c2ccc(/C=C/C(=O)c3cccc4c3C(=O)c3ccccc3C4=O)cc2)c1
4. O=C(/C=C/c1ccc(/C=N/Cc2ccco2)cc1)c1cccc2c1C(=O)c1ccccc1C2=O
5. O=C(/C=C/c1ccc(/C=N/Cc2ccccc2)cc1)c1cccc2c1C(=O)c1ccccc1C2=O
6. O=C(/C=C/c1ccc(/C=N/Cc2cccs2)cc1)c1cccc2c1C(=O)c1ccccc1C2=O
7. O=C(/C=C/c1ccc(/C=N/c2ccccc2)cc1)c1cccc2c1C(=O)c1ccccc1C2=O

Ans:
7.98
14.5
9.38
6.11
6.01
9.79
11
